# measurementDescription: Cytotoxicity against human Raji cells assessed as cell viability at 1000 molar ratio
# Format: cell-based
# appliedConditions: read-out: Activity
Below, each entry is listed with its recorded viability at 1000 molar ratio.
Report the figure in % without appending any unit label.

molecule	scaleUnit	viability at 1000 molar ratio
C=CCc1ccc(O)c(-c2cc(CC=C)cc(C3C=C(C)CC[C@@H]3C(C)C)c2O)c1 (stereo not given in full)	%	60

*Q* Consider the molecule `C=CCc1ccc(O)c(-c2ccc(O)c(CC=C)c2)c1` . State its measured viability at 1000 molar ratio.
*A* 60

*Q* Consider the molecule `C=CCc1ccc(O)c(-c2cc(CC=C)ccc2O)c1` . State its measured viability at 1000 molar ratio.
*A* 70
